- Target Or System: Fibroblast growth factor 10 (Homo sapiens) (UniProt O15520)
- Sequence (O15520 whole entry, looked up): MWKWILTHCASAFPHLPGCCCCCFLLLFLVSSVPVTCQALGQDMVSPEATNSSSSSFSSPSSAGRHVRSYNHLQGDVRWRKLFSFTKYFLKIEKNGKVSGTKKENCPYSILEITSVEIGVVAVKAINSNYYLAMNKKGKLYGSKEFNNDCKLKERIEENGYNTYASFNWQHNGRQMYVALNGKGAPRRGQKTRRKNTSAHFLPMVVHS
- Test Name: FGF10 binders on small-molecule microarrays, primary screen, biochemical, small-molecule microarray, 635 nm fluorescence (AID 1102)
- Condition Set: FGF10 binding, fluorescence 635 nm, higher = more signal
Threshold check on composite z-score: at or above 0.7 gives y, strictly below gives n.

Example entries begin here.
CC(C)CNC(=O)[C@@]1(C)c2ccccc2C(=O)N(Cc2cc(F)cc(C(F)(F)F)c2)[C@H]1c1ccc(CO)cc1	n
CN(C)C(=O)[C@@]1(CCS(=O)(=O)c2ccccc2)N=C(c2ccc(OCCCO)cc2)O[C@H]1c1ccccc1N=[N+]=[N-]	y
CN1C(=O)[C@]2(CCC(=O)OC(C)(C)C)N=C(c3ccc(OCCCO)cc3)O[C@@H]2c2ccccc21	y

Req: hey, is composite z-score for this one >= 0.7? O=c1cccc(-c2ccccc2C(F)(F)F)o1
Resp: n

Req: Try this compound too: C=C(COC)C(=O)CC[C@@H](OC(C)=O)c1ccc(OCCO)cc1
Resp: y
